# Test system: Escherichia coli
# measurementProtocol: Compound was tested for inhibition of the gram-negative organism Escherichia coli vogel
# Assay type: functional
experimentalReadout: MIC (µg/mL)
Answers are plain numbers, in µg/mL.

See these solved cases before continuing.
{"compound": "CCNCC1CCN(c2cc3c(cc2F)c(=O)c(C(=O)O)cn3CC)C1 (stereo not given)", "systemName": "Escherichia coli", "MIC (µg/mL)": 0.1}
{"compound": "CCn1cc(C(=O)O)c(=O)c2cc3c(cc21)OCO3", "systemName": "Escherichia coli", "MIC (µg/mL)": 0.2}
{"compound": "CCn1cc(C(=O)O)c(=O)c2ccc(C)nc21", "systemName": "Escherichia coli", "MIC (µg/mL)": 3.1}
{"compound": "CNn1cc(C(=O)O)c(=O)c2cc(F)c(N3CCN(C)CC3)cc21", "systemName": "Escherichia coli", "MIC (µg/mL)": 0.1}

Okay, next one:
Fill in the blank: the reported MIC of CCn1cc(C(=O)O)c(=O)c2cc(F)c(N3CCNCC3)nc21 is ____.
0.2

###

# Tested on: Enterococcus faecalis
# measurementProtocol: Compound was tested for inhibition of the […] organism Streptococcus faecalis MGH-2
# Assay type: functional
experimentalReadout: MIC (µg/mL)
One number for each entry, in µg/mL.

See these solved cases before continuing.
{"compound": "CCn1cc(C(=O)O)c(=O)c2cc(F)c(N3CCC(CN)C3)cc21 (centres undefined)", "MIC (µg/mL)": 0.8}
{"compound": "CC1COc2c(N3CCN(C)CC3)c(F)cc3c(=O)c(C(=O)O)cn1c23 (centres undefined)", "MIC (µg/mL)": 0.8}
{"compound": "CCn1cc(C(=O)O)c(=O)c2cc(F)c(N3CCN(C)CC3)cc21", "MIC (µg/mL)": 0.8}

Okay, next one:
Fill in the blank: the reported MIC of O=C(O)c1cn(C2CC2)c2cc(N3CCNCC3)c(F)cc2c1=O is ____.
0.8
